Biological target: Orexin type 1 (OX1R) receptor (Homo sapiens)
Construct: expressed in transfected cells; host or cells: CHO cells (G418 selection)
Sequence (O43613 1-425): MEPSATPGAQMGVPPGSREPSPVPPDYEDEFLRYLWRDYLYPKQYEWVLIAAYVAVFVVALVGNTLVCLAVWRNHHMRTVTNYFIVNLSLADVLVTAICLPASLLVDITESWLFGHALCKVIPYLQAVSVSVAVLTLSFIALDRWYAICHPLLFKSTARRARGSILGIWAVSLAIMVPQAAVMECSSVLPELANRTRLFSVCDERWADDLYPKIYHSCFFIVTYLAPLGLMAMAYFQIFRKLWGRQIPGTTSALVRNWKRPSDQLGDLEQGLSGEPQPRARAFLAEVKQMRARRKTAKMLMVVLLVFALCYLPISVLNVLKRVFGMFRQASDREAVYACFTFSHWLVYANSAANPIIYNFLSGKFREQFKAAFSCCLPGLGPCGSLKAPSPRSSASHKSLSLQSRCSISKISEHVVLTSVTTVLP
Assay: In vitro orexin antagonism assay: intracellular calcium measurement (FLIPR), orexin-A 3 nM as agonist
Format: cell-based
Conditions: read-out: OX1R, % Inh. @ 1 uM
Tick yes if inhibition at 1 µM is 90% or greater. Tick no if inhibition at 1 µM is less than 90%.

* O=C(c1c(-c2ccccc2)nc2cc(C(F)(F)F)ccn12)N1[C@H](Cn2ccc(-c3ccc(F)cn3)n2)C[C@@H]2C[C@@H]21 | no
* C[C@@]1(Cn2ccc(-c3ccccn3)n2)CCCN1C(=O)c1nn2c(c1-c1ccccc1)COCC2 | no
* O=C(c1c(-c2ncccn2)nn2ccccc12)N1CCC[C@H]1Cn1ccc(-c2ccc(F)cn2)n1 | yes
* O=C(c1c(-c2ncccn2)nn2ccccc12)N1C2CCC1(COc1ccc(C(F)(F)F)cn1)CC2 | no
* O=C(c1nn2ccccc2c1-c1ccccn1)N1CCC[C@H]1Cn1cc(-c2ccc(F)cn2)cn1 | yes
* O=C(c1c(-c2ccccc2F)nn2c1COCC2)N1CCC[C@H]1Cn1ccc(-c2ccc(F)cn2)n1 | no

Lab note: next molecule to report on.
Req: # check: inhibition at 1 µM of O=C(c1c(-c2ccccc2)nc2ccccn12)N1CCCC[C@H]1COc1ccc(C(F)(F)F)cn1 is greater than or equal to 90%
Resp: yes
